Where do the numbers come from? From patent US12590062B2.

Hi there, I'd appreciate the recorded AC50 for every entry that follows.
Biological target: PD-L1 (Homo sapiens, UniProt Q9NZQ7)
Construct: determine if they can specifically dimerize the extracellular domains of PD-L1
Sequence (Q9NZQ7 19-238 limits assumed): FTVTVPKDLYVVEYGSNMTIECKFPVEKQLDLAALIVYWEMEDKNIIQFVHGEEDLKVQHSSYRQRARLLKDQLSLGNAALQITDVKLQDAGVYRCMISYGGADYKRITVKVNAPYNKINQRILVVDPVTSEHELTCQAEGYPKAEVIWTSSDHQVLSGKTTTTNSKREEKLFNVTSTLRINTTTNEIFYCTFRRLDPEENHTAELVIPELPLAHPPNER
Sequence (Q9NZQ7 19-238 limits assumed): as above
Test: PD-L1/PD-L1 dimerization biochemical protein-protein interaction assay (ALPHA)
Assay type: binding
Conditions: compound-induced PD-L1 dimerization, head prints '1 nM' (0.5 nM His-tagged PD-L1 and 0.5 nM FLAG-tagged PD-L1), read-out: AC50 PDL1 Dimer Alpha 1 nM
Give the value in nM but do not write nM after it.

Asked: Return reported AC50; argument: Cc1c(COc2cc(OCc3cncc(C#N)c3)c(CN[C@@](C)(CO)C(=O)O)cc2Cl)cccc1-c1cccc(-c2ccc(C3CCNC3)cc2)c1C (some centres unmarked)
Given back: 118

Asked: Could you share which AC50 value was measured for COc1nc(-c2cccc(-c3cccc(-c4nc5ccc(CNC[C@@H]6CCC(=O)N6)cn5n4)c3Cl)c2Cl)ccc1CNC[C@@H]1CCC(=O)N1 ?
Given back: 2840

Asked: Given COc1nc(-c2cccc(-c3cccc4c3CC[C@@H]4Oc3nc(OCc4cncc(C#N)c4)c(CN[C@@](C)(CO)C(=O)O)cc3Br)c2Cl)ccc1C1=NCCN1 , state its recorded AC50.
Given back: 9.53

Asked: Which AC50 value is on record for COc1nc(O[C@H]2CCc3c(-c4cccc(-c5cnc(CN6CC(C)(CO)C6)c(OC)n5)c4Cl)cccc32)c(Cl)cc1CN1CC[C@H](C(=O)O)C1 ?
Given back: 39.3

Asked: Value lookup for AC50; key = Cc1c(COc2cc(OCc3cncc(C#N)c3)c(CNC[C@@H](O)CC(=O)O)cc2Cl)cccc1-c1cccc(-c2ccc3oc(CNC[C@@H](O)CC(=O)O)cc3c2)c1C
Given back: 83.1

Asked: What does the data say about its AC50? Entry: COc1nc(O[C@H]2CCc3c(-c4cccc(-c5ccc(CNC[C@@H]6CCC(=O)N6)cc5)c4Cl)cccc32)c(Cl)cc1CN1CC[C@H](C(=O)O)C1
Given back: 35.1

Asked: Endpoint output: AC50 of CNCc1cccc(-c2cccc(-c3cccc(COc4cc(OCc5cncc(C#N)c5)c(CN[C@@](C)(CO)C(=O)O)cc4Cl)c3C)c2C)c1 . Value?
Given back: 100

Asked: Param item = Cc1c(COc2cc(OCc3cncc(C#N)c3)c(CN(C)C)cc2Cl)cccc1-c1cccc(-c2ccc(CN(C)C)nc2)c1C ; retrieve measured AC50.
Given back: 334

Asked: Which AC50 is reported for this compound? CS(=O)(=O)c1cncc(COc2nc(OCc3cccc(-c4cccc(-c5ccc(OCCNCCO)cc5)c4Cl)c3Cl)c(Cl)cc2CN2C[C@@H](O)C[C@H]2C(=O)O)c1
Given back: 101

Asked: Query (compound): Cc1c(COc2cc(OCc3cncc(C#N)c3)c(CNC[C@@H](O)CC(=O)O)cc2Cl)cccc1-c1cccc(-c2ccc(OCCNC[C@@H](O)CC(=O)O)cc2)c1C ; field requested: AC50
Given back: 100

Asked: So what's the measured AC50 for this one? Cc1c(COc2cc(OCc3cncc(C#N)c3)c(CN[C@@H]3CCC[C@@H]3O)cc2Cl)cccc1-c1cccc(-c2ccc3c(c2)CCC3N2CC3(CC(C(=O)O)C3)C2)c1C (some centres unmarked)
Given back: 38.3
